// provenance: patent US12037324B2

The entries below come with measured EC50 values attached.
Molecular target: AGTR1 (Homo sapiens, UniProt P30556)
Construct: host or cells: Pathunter CHO-K1 AGTR1 β-arrestin cell line (CHO-K1)
Sequence (P30556 whole entry): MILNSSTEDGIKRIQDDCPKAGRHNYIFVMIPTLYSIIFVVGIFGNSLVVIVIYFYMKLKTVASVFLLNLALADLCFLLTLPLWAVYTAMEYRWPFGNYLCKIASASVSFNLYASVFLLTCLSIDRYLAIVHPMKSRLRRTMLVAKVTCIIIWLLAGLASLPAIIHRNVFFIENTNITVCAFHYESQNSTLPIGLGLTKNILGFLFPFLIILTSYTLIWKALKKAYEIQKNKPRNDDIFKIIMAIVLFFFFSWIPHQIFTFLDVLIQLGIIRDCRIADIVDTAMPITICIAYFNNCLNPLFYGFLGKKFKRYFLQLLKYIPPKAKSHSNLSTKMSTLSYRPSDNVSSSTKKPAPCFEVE
Assay: DiscoveRx β-arrestin2 recruitment assay (enzyme complementation, Pathunter CHO-K1 AGTR1 β-arrestin cell line)
Assay type: cell-based
Settings: DiscoveRx β-arrestin2 recruitment
Enter your answer as a number in nM; do not include the unit.

For orientation, consider the following solved cases.
CCc1nc2c(C)cc(C)nc2n1Cc1ccc(-c2cc(Oc3cc(F)ccn3)ccc2-c2nn[nH]n2)cc1 :: 35.8
CCCCC(=O)N(Cc1ccc(-c2cc(-c3ccc4ncccc4c3)ccc2-c2nn[nH]n2)cc1)C1(C(=O)O)CCCCC1 :: 177
CCc1nc2c(C)cc(C)nc2n1Cc1ccc(-c2cc(N3CCC[C@@H](C)C3)ccc2-c2nn[nH]n2)cc1 :: 159

Query block: // EC50 lookup, key: "CCCCC(=O)N(Cc1ccc(-c2cc(-c3ccccc3)ccc2-c2nn[nH]n2)cc1)C1(C(=O)O)CCOCC1"
Result block: 50

Query block: Quick one: EC50 for "CCC1=NC2(CCCC2)C(=O)N1Cc1ccc(-c2cc(-c3ccccc3)ccc2-c2nn[nH]n2)cc1" ?
Result block: 124

Query block: Can you share its EC50? I mean this molecule: "CCCCC1=NC2(CCCC2)C(=O)N1Cc1ccc(-c2cc(N3CCC(C)CC3)ccc2-c2nn[nH]n2)cc1"
Result block: 28.8

Query block: EC50 for CCc1nc2c(C)cc(C)nc2n1Cc1ccc(-c2cc(C3CCCCN3)ccc2-c2nn[nH]n2)cc1 (single isomer, unassigned) [Example 75] ?
Result block: 543

Query block: Consider the molecule shown here: "CCCCC1=NC2(CCCC2)C(=O)N1Cc1ccc(-c2cc(-c3cc(OC)ccn3)ccc2-c2nn[nH]n2)cc1" What is its recorded EC50?
Result block: 13.5

Query block: Entry under review: "CCCC1=NC2(CCCC2)C(=O)N1Cc1ccc(-c2cc(-c3cc(OC)ccn3)ccc2-c2nn[nH]n2)cc1" . Reported EC50?
Result block: 13.3

Query block: Would you mind telling me what EC50 value was observed for CCCC1=NC2(CCOC2)C(=O)N1Cc1ccc(-c2cc(-c3ccccc3)ccc2-c2nn[nH]n2)cc1 (single isomer, unassigned) ?
Result block: 191

Query block: Quick one: EC50 for "CCCCC(=O)N(Cc1ccc(-c2cc(-c3ccccc3)ccc2-c2noc(=O)[nH]2)cc1)C1(C(=O)O)CCCCC1" ?
Result block: 41.6

Query block: Returns the measured EC50 for the input molecule. Input: CCCCC1=NC2(CCOC2)C(=O)N1Cc1ccc(-c2cc(-c3ccccc3F)ccc2-c2nnn[nH]2)cc1 (single isomer, unassigned) [Example 148]
Result block: 103

Query block: Give its EC50 value. Item: "CCc1nc2c(C)cc(C)nc2n1Cc1ccc(-c2cc(-c3cn(CC(C)C)nn3)ccc2-c2nnn[nH]2)cc1"
Result block: 48.6

Query block: Requested field: EC50. Item: "CCOc1nc2cccc(C(=O)O)c2n1Cc1ccc(-c2cc(-c3ccccc3)ccc2C(=O)O)cc1"
Result block: 3.5

Query block: Which EC50 is listed for "CCCCOC(=O)NS(=O)(=O)c1sc(-c2cccnc2OC)cc1-c1ccc(Cn2c(CC)nc3c(C)cc(C)nc32)cn1" ?
Result block: 106

Query block: # input molecule: "CCc1nc2c(C)cc(C)nc2n1Cc1ccc(-c2cc(-c3ccc(CO)cc3)ccc2-c2nn[nH]n2)cc1" ; wanted: its EC50
Result block: 10.2

Query block: Request the reported EC50 associated with "CCc1nc2c(C)cc(C)nc2n1Cc1ccc(-c2cc(Oc3cccnc3F)ccc2-c2nn[nH]n2)cc1"
Result block: 19.9

Query block: // EC50 lookup, key: "CCCCC1=NC2(CCCC2)C(=O)N1Cc1ccc(-c2cc(Nc3ccccc3)ccc2-c2nn[nH]n2)cc1"
Result block: 32.4

Query block: Looking for the measured EC50 of "CCCCc1ncc(C(=O)N2CCC2)n1Cc1ccc(-c2cc(-c3ccccc3)ccc2-c2nn[nH]n2)cc1" , can you help?
Result block: 16.3

Query block: Which EC50 reading was recorded for the molecule "CCCCC1=NC2(CCCC2)C(=O)N1Cc1ccc(-c2cc(-c3ccccc3)ccc2-c2nn[nH]n2)cc1" ?
Result block: 9.7

Query block: Look up EC50 for this molecule: "CCCCC1=NC2(CCCC2)C(=O)N1Cc1ccc(-c2cc(-c3ccccc3)ccc2-c2nn[nH]n2)nc1"
Result block: 23.3
